target: DD(E) (Homo sapiens, UniProt P02671+P02675+P02679); construct: host or cells: purchased fibrinogen clotted with thrombin, digested with plasmin, then purified by ammonium sulfate cuts and Sephacryl S200; assay: dissociation constant against fibrin-derived polypeptide DD(E); type: binding; conditions: cyclic peptides of Table 12; unit inferred; read-out: Kd against DD(E)
Sequence (P02671 130-216): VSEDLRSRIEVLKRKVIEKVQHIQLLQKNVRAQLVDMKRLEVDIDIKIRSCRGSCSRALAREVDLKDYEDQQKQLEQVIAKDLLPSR
Sequence (P02675 164-491): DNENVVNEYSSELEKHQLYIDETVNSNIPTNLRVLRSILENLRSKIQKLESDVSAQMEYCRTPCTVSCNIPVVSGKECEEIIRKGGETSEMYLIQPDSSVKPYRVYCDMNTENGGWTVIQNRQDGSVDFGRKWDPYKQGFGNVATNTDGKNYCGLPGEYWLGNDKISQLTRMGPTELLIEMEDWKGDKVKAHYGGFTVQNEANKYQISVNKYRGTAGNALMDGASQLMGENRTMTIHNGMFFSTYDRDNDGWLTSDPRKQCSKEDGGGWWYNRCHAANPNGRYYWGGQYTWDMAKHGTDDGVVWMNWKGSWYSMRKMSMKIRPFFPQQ
Sequence (P02679 114-432): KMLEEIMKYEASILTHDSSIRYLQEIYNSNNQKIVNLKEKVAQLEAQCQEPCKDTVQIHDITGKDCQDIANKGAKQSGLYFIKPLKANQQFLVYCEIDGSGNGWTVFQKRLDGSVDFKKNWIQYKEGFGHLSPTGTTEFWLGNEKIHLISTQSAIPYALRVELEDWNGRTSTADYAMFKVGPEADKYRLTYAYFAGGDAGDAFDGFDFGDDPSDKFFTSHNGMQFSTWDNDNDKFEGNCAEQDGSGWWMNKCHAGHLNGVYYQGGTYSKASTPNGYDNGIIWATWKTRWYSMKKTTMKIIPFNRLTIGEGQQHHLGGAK
Sequence (P02671 36-97): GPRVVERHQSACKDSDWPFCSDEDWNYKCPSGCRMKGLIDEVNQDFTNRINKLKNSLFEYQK
Sequence (P02675 45-152): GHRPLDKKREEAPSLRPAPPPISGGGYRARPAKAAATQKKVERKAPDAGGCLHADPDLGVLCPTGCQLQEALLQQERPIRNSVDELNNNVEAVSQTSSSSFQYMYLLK
Sequence (P02679 27-88): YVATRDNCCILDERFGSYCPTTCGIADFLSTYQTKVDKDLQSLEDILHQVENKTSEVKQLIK
Peptide text beside a SMILES is read from it.

{"compound": "C[C@@H](O)[C@@H]1NC(=O)CNC(=O)[C@H](Cc2ccc(O)cc2)NC(=O)[C@H](Cc2ccc(O)cc2)NC(=O)[C@H](CC(=O)O)NC(=O)CNC(=O)CNC1=O [(II)] (cyclo(GDYYGTG))", "Kd": "> 500 µM"}
